Cited source for all entries: ChEMBL document CHEMBL2331449

Test system UniProtKB P37136, log10 of IC50 listed for each of the compounds.
Sequence (P37136 whole entry): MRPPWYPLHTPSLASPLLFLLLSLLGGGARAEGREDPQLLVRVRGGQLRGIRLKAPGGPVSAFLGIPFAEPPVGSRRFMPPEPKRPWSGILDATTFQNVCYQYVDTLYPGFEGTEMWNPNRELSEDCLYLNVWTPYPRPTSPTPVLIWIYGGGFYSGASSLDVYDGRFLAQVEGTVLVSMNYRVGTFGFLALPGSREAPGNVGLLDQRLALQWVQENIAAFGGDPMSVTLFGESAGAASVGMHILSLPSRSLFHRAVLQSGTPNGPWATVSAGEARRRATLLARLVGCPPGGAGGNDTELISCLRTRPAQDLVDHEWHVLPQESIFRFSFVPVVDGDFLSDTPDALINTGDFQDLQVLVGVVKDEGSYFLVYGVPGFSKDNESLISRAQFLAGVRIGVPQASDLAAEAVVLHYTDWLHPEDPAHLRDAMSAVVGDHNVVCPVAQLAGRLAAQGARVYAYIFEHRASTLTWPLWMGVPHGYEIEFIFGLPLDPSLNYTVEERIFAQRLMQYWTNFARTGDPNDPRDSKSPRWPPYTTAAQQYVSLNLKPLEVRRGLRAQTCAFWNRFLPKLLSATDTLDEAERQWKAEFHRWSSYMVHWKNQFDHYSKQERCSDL
log10 IC50, µM

O=C1c2cccc(O)c2C(=O)c2c(O)cc(C[n+]3ccccc3)cc21	-1.05
COc1cccc2c1C(=O)c1c(OC)cc(C[N+](C)(C)c3ccccc3)cc1C2=O	1.13
COc1cccc2c1C(=O)c1c(OC)cc(C[N+](C)(C)C)cc1C2=O	-0.27
C[N+](C)(C)Cc1cc(O)c2c(c1)C(=O)c1cccc(O)c1C2=O	0.58

// moving on: another record for log10 of IC50
Name the recorded log10 of IC50 for `C[N+](C)(Cc1cc(O)c2c(c1)C(=O)c1cccc(O)c1C2=O)c1ccccc1` .
1.40
